The origin of these recorded values is PubChem BioAssay.

Assign composite Z-score to each entry below.
- assay.remarks: small-molecule microarray binders of probe aXIP, primary screen, biochemical, NeuroSMM set, 635/667 nm fluorescence (AID 1119);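 note: probe is the protein aXip251-270 applied at 1 µg/mL to compound-printed slides; binding of probe to printed compounds measured as 667 nm fluorescence plus signal to noise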
- protocol.conditions: higher = more signal, called active from +8 up or from −8 down
Write the value as a bare number.

(Q) Can you look up the measured composite Z-score of COC(=O)[C@]1(CO)N=C(c2ccc(OCCCO)cc2)O[C@@H]1c1ccccc1N=[N+]=[N-] for me?
(A) 1.73

(Q) Continue with O=C1c2ccccc2[C@@]2(Cc3ccccc3N(C3CC3)C2=O)[C@H](c2ccc(CO)cc2)N1Cc1ccccc1C(F)(F)F
(A) -0.174

(Q) Continue with C=CCN1C(=O)[C@]2(O[C@H](CCn3cc(CCO)nn3)[C@@H]([Si](C)(C)c3ccc(OC)cc3)[C@@H]2C)c2cc(N3CCOC3=O)ccc21
(A) -0.217

(Q) Continue with CC(C)CON=C1C[C@@H](O)[C@@H](O)[C@@H]2[C@@H]3C(=O)N([C@@H](C)c4ccccc4)C(=O)[C@@H]3CC[C@H]12
(A) 0.0312

(Q) Continue with O=C1[C@H]2[C@H]3[C@H](O)[C@H](O)CC(=NOCc4ccccc4)[C@H]3CC[C@H]2C(=O)N1c1cccc(Oc2ccccc2)c1
(A) -0.171

(Q) Continue with CN1C(=O)C2C=CC(C(O)c3ccc(I)cc3)N(NC(=O)OC(C)(C)C)C2C1=O (stereo not drawn)
(A) -0.252

(Q) Continue with C#C[C@@H](CC)O[Si](C#Cc1ccc(Oc2ccccc2)cc1)(C(C)C)C(C)C
(A) 0.317

(Q) Continue with C=C(CCCC)C(=O)CC[C@@H](OC(C)=O)c1cccc(OCCO)c1
(A) 0.0491
